Measured inhibition, listed per entry.
- target under test: Ribosomal protein S6 kinase beta-1 (Homo sapiens);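 note: values are mean inhibition of p70S6K1, measured as part of the GSK PKIS panel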
- assay context: at 1 µM
Kindly provide the numeric value in % only, without the unit symbol.

GET /value?item= NC(=O)c1cc(-c2ccc(F)cc2)cc(-c2ccncc2)c1N &field=inhibition returns 2.24

GET /value?item= O=C(NCC1CC1)c1ccc(-c2cccc(C(=O)NC3CC3)c2)cc1 &field=inhibition returns 1.03

GET /value?item= O=C1Nc2ccc(I)cc2C1=Cc1cc(Br)c(O)c(Br)c1 &field=inhibition returns 4.52

GET /value?item= NC(=O)c1ccc(Oc2nccc(-c3c(-c4ccc(F)cc4)ncn3C3CCNCC3)n2)cc1 &field=inhibition returns 5.34

GET /value?item= c1ccc(Oc2ccc(Nc3ncc(-c4ccccc4)o3)cc2)cc1 &field=inhibition returns -0.31

GET /value?item= Fc1ccc(-c2ncn(CCCN3CCOCC3)c2-c2ccncc2)cc1 &field=inhibition returns -0.43

GET /value?item= CN(C)c1ccc2c(c1)/C(=C/Nc1ccc(S(N)(=O)=O)cc1)C(=O)N2 &field=inhibition returns 3.09

GET /value?item= NCc1ccc(-n2c(-c3nonc3N)nc3cnccc32)cc1 &field=inhibition returns 69.9

GET /value?item= COc1ccc(-c2ccc3c(NC(=O)C4CC4)n[nH]c3n2)cc1 &field=inhibition returns 0.21

GET /value?item= Nc1nccc(-c2c(-c3ccc(F)cc3)ncn2C2CCC(O)CC2)n1 (stereo unspecified) &field=inhibition returns -1.84

GET /value?item= CN1CCN(CCCNc2nc3ccc(Oc4ccc(NC(=O)Nc5cc(C(F)(F)F)ccc5F)cc4)cc3[nH]2)CC1 &field=inhibition returns 4.19

GET /value?item= COc1cc(Nc2ncc3c(C)nc(-c4cccc(Oc5ccccc5)c4)n3n2)cc(OC)c1OC &field=inhibition returns 3.01

GET /value?item= Cc1ccc(NC(=O)c2ccoc2)cc1-c1ccc(C(=O)NCC2CC2)cc1 &field=inhibition returns -1.48

GET /value?item= NC(=O)c1cc(-c2ccncc2)cc(-c2ccccc2)c1N &field=inhibition returns 2.1

GET /value?item= Fc1ccc(-c2nc3n(c2-c2ccncc2)CCS3)cc1 &field=inhibition returns 2.54

GET /value?item= COc1cc(N2CCN(C(C)C)CC2)ccc1Nc1nc(Nc2ccc(F)cc2C(=O)NC[C@@H](O)CO)c2cc[nH]c2n1 &field=inhibition returns 2.5

GET /value?item= CCc1nccc2c1nc(-c1nonc1N)n2CC &field=inhibition returns 49.6

GET /value?item= O=C(Nc1n[nH]c2cc(-c3ccccc3)ccc12)C1CC1 &field=inhibition returns 1.27

GET /value?item= CS(=O)(=O)CCNCc1cc(-c2cc3c(Nc4ccc(OCc5cccc(F)c5)c(Cl)c4)ncnc3s2)cs1 &field=inhibition returns 4.75

GET /value?item= CNC(=O)c1cncc(/C=C/c2c(C)cccc2C)c1 &field=inhibition returns 0.86

GET /value?item= c1ccc(-c2n[nH]cc2-c2ccnc(-c3ccc(OCCN4CCOCC4)cc3)c2)nc1 &field=inhibition returns 1.17

All figures here come from ChEMBL document CHEMBL1961873.
